These measurements were taken from the supplement of paper PMC9170038.

Tested on: MS2 coat protein
Assay: apparent KD of MS2 coat protein; designed switch direction (-1 OFF switch, 1 ON switch): -1; higher = weaker reporter binding
Conditions: Eterna round: R95; input ligand: microRNA oligo, concentration not stated
Classify by apparent KD of MS2 coat protein. Ranges: bottom: < 30 nM; middle: ≥ 30 nM and < 40 nM; top: ≥ 40 nM

Example entries begin here.
chainSequence	labelClass
AUAUAUAGUGUGAGGAUAUGCUGGUCCUUGGAUCAGCAGAAGGCACAUGAGGAUCACCCAUGUAGUUAAAUAUA [Mat - Exclusion 4 - JL Mod - D19] (puzzle: Brourd's mod of Exclusion 4)	middle
GUGGAGUAAGGAUAUACAUGAGGAUCACCCAUGUGAGGGUAUGAGAAGGGAAUGAGAGGUAGAAGGUACGAGGA [JR_Exclu3_Sub069] (puzzle: Exclusion 3)	top
AGAAAGGAAGGAUAUACAAGAAAGCUGGGCAACGUCUCAGAACAUGAGGAUCACCCAUGUAGAAGGUCCAGGAA [Bienqura] (puzzle: Exclusion 2)	bottom
AAAUUAAGUGUGAGGAUAUGCUGGUCCUUAGAUCAGCAGAAGGCACAUGAGGAUCACCCAUGUAAUAUAUUUAA [Mat - Exclusion 4 - JL Mod - D50] (puzzle: Brourd's mod of Exclusion 4)	middle
CGUGACUGAGGAUAUCUAUAAUAUCACAUGAGGAUCACCCAUGUCCAGCGAAAGCUGGAAGGAGAAGGCAGUCACG [Fiskers Ex 5 - 34] (puzzle: Exclusion 5)	bottom

**Q:** For AGUUACUACAAGCUUUGGGACAUGAGGAUCACCCAUGUUCGUCUUAUUGUAGUAGGUACGCUGACGUACCUACUACU [Mat - Sensor v3 - turn-off var 1 - JL Mod - D6] (puzzle: Sensor v3, turn-off variant 1) , which apparent KD of MS2 coat protein bin applies?
**A:** top

**Q:** Now try CUGAGGUAGCGGUCCUAUGACAUGAGGAUCACCCAUGUACCUUGCUUCGAGCUUUUAGCUCGUCUUAUGAUUCUCGG [Mat - Sensor v3 - turn-off var 1 - JL Mod - D36] (puzzle: Sensor v3, turn-off variant 1) .
**A:** top

**Q:** What do we get for CUUUUGUGAGGAUAUCGGUAGUAAUACAAUAGUAUUACUACUGAGAAGGCACAUGAGGAUCACCCAUGUUCCUC [Ex4 344 Omei mod 9] (puzzle: Exclusion 4) ?
**A:** top

**Q:** Please do the same for AGUUGGCGAGGAUAUACAUGAGGAUCACCCAUGUGAGAGAAUAAAGUGAGGAAGAAAAGUAGAAGGCGCUGACA [Mat - Exclusion 3 - Mod of Salish D9] (puzzle: Exclusion 3) as well.
**A:** top

**Q:** And then CAAAUCUGAGGAUAUCGAUAUUUGUACAUGAGGAUCACCCAUGUCCUAUUUAUAAAAUCCCGAGAAGGCAGUGUAU [JR_E5_Sub095] (puzzle: Exclusion 5) , what is it?
**A:** bottom

====

Tested on: K4 kissing-loop RNA reporter;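 also: bound reporter read as fluorescence of individual clusters on recovered sequencing chips by microscopy, with normalized cluster intensities fitted with a binding model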
Assay: apparent KD of K4 kissing-loop reporter; higher = weaker reporter binding
Conditions: Eterna round: R107; input ligand: theophylline 20 uM
Please provide measured apparent KD of K4 kissing-loop reporter for the entries that follow.
One number for each entry, in nM.

In the examples that follow, each entry is paired with its recorded apparent KD of K4 kissing-loop reporter.
chainSequence	apparent KD of K4 kissing-loop reporter (nM)
AAUAAAAUCACGGCCGCCACUGAUACUAGUAUUAGCAGUGAUGUUGCUAUGUAUAAUUUAUUAAAUAGGACCGGGUGAAUAUUUA [#25 K4 Tryptophan B Exclusion]	350
AGCGGCCAGUCGGCCGCCACUCCAGGCAGUGAUGUUGCUAAGUUUCUACUAGAGUGAUGUUCUAAGAGGACCGGGACUGACGUAU [Exclusion Tryptophan B Gf 8]	216
CCUAUCUCAUACGAUACCAGUCCGAGUGAUGUUCGAAAAUAAAUAAAUUUGCCAUAUAAUGACCCUUGGCAGCGUAUGGGAUAGG [Ex Theophylline B K4 11]	400
GUGCGGUGGAGGCUACCGCUACUCUGAGAAGGAGCGCAGAAGACUGCAGGUAGGUCGCUUAGAGCUUGCAGUGAUGUUGCAAGUU [KL-SSArg-A18]	156
AUGCGCGCGGCGGCCGCCACUCGCAUGAGAGUGAUGUUCUCGCCGGGCCCGGAAGGGCCCGGUGUGAGGACCGGGCCGGGCUGCG [#2 Same State - Tryptophan B Attempt #17 (HarryS)]	278

For the 2 sequences below, give their apparent KD of K4 kissing-loop reporter values.
1. AAUAUAGUGAUGUUAUAUAAGAAGGAGUUACGAGGACCGGUACGGCCGCCACUCGAAACGAGUGAGGAUUUGGGAGAUUGGGUUU [SSTryptA.M]
2. CGGAUGUAGUGAUGUUAUAUUAGAUGUAGACGAGGACCGGUACGGCCGCCACUCGUGAUGGCUGCUAGCACGUUUCGAUGUUUGC [ExTryptoA.Cq]

**A:**
1: 324; 2: 611
